// data source = patent US20260001881A1

assay-comment: Stability of prodrugs in mouse plasma after 2 hours of treatment
Format: in vitro ADME
experimental-parameters: 37° C.
Each record here notes measured Parent prodrug remained after 2 hours.

compound | units | Parent prodrug remained after 2 hours
CC(C)[C@H](N)C(=O)OC[C@@]12C[C@@H]1[C@@H](n1cnc3c(NC(C4CC4)C4CC4)nc(Cl)nc31)[C@H](O)[C@@H]2O | % | 21
CC(C)[C@H](N)C(=O)N(c1nc(Cl)nc2c1ncn2[C@H]1[C@H](O)[C@H](O)[C@@H]2C[C@@H]21)C(C1CC1)C1CC1 | % | 14
CC(C)[C@H](N)C(=O)OC1C(OC(=O)[C@@H](N)C(C)C)[C@@H]2C[C@@H]2C1n1cnc2c(NC(C3CC3)C3CC3)nc(Cl)nc21.Cl.Cl (some centres unmarked) | % | 11
CNC(=O)[C@@]12C[C@@H]1[C@@H](n1cnc3c(NCc4cccc(Cl)c4)nc(C#Cc4ccc(F)c(F)c4)nc31)[C@H](OC(=O)[C@@H](N)C(C)C)[C@@H]2OC(=O)[C@@H](N)C(C)C | % | 9
CNC(=O)[C@@]12C[C@@H]1[C@@H](n1cnc3c(NCc4cccc(Cl)c4)nc(C#Cc4ccc(F)c(F)c4)nc31)[C@@H]1OC3(CCN(C)CC3)O[C@@H]12 | % | 17

----------
Each record here notes measured pKi.
target: UniProtKB P30542
assay-comment: Binding affinities for Adenosine receptors (hA1AR)
experimental-parameters: CHO cells stably expressing recombinant hA1AR
pKi: −log10 of the molar value.
readout-type: pKi

compound | endpoint-value
C[C@@H]1CC(n2cnc3c(NC(C4CC4)C4CC4)nc(Cl)nc32)C(O)C1O (some centres unmarked) | > 6.00
OC[C@H]1O[C@@H](n2cnc3c(NC4C5(CC5)C45CC5)nc(Cl)nc32)[C@@H](O)C1O (some centres unmarked) | < 5.00
C[C@@H]1CC(n2cnc3c(NC4C5(CC5)C45CC5)nc(Cl)nc32)C(O)C1O (some centres unmarked) | > 6.00
OC[C@H]1O[C@@H](n2cnc3c(NC(C4CC4)C4CC4)nc(Cl)nc32)[C@@H](O)C1O (some centres unmarked) | 5.00 to 6.00
C[C@@H]1CC(n2cnc3c(NC(C4CC4)C4CC4)ncnc32)C(O)C1O (some centres unmarked) | 5.00 to 6.00
C[C@@H]1CC(n2cnc3c(NC4C5(CC5)C45CC5)ncnc32)C(O)C1O (some centres unmarked) | < 5.00
OC[C@H]1O[C@@H](n2cnc3c(NC4C5(CC5)C45CC5)ncnc32)[C@@H](O)C1O (some centres unmarked) | 5.00 to 6.00
OC[C@H]1O[C@@H](n2cnc3c(NC(C4CCC4)C4CCC4)ncnc32)[C@@H](O)C1O (some centres unmarked) | 5.00 to 6.00

----------
Each record here notes measured Ki.
target: hA3AR (Homo sapiens (Human))
Sequence (P0DMS8 whole entry): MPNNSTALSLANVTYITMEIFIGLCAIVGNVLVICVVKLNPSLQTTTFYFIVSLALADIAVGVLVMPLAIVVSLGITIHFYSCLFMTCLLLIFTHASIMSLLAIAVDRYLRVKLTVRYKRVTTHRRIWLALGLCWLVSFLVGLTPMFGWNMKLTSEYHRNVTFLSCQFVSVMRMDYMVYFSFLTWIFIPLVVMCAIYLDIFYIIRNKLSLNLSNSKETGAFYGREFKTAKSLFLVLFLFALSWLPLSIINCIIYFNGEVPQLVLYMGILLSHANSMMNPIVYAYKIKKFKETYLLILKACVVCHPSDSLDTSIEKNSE
assay-comment: Binding affinities for Adenosine receptors (hA3AR)
experimental-parameters: CHO cells stably expressing recombinant hA3AR

compound | Ki
OC[C@H]1O[C@@H](n2cnc3c(NC4C5(CC5)C45CC5)ncnc32)[C@@H](O)C1O (stereo partly drawn) | > 10 µM
OC[C@H]1O[C@@H](n2cnc3c(NC(C4CC4)C4CC4)ncnc32)[C@@H](O)C1O (stereo partly drawn) | 1 to 10 µM
C[C@@H]1CC(n2cnc3c(NC4C5(CC5)C45CC5)ncnc32)C(O)C1O (stereo partly drawn) | > 10 µM
C[C@@H]1CC(n2cnc3c(NC(C4CC4)C4CC4)ncnc32)C(O)C1O (stereo partly drawn) | > 10 µM
C[C@@H]1CC(n2cnc3c(NC4C5(CC5)C45CC5)nc(Cl)nc32)C(O)C1O (stereo partly drawn) | > 10 µM
C[C@@H]1CC(n2cnc3c(NC(C4CCC4)C4CCC4)nc(Cl)nc32)C(O)C1O (stereo partly drawn) | > 10 µM
OC[C@H]1O[C@@H](n2cnc3c(NC(C4CCC4)C4CCC4)nc(Cl)nc32)[C@@H](O)C1O (stereo partly drawn) | < 1 µM
OC[C@H]1O[C@@H](n2cnc3c(NC(C4CC4)C4CC4)nc(Cl)nc32)[C@@H](O)C1O (stereo partly drawn) | > 10 µM
C[C@@H]1CC(n2cnc3c(NC(C4CCC4)C4CCC4)ncnc32)C(O)C1O (stereo partly drawn) | > 10 µM
C[C@@H]1CC(n2cnc3c(NC(C4CC4)C4CC4)nc(Cl)nc32)C(O)C1O (stereo partly drawn) | 1 to 10 µM
OC[C@H]1O[C@@H](n2cnc3c(NC4C5(CC5)C45CC5)nc(Cl)nc32)[C@@H](O)C1O (stereo partly drawn) | > 10 µM
OC[C@H]1O[C@@H](n2cnc3c(NC(C4CCC4)C4CCC4)ncnc32)[C@@H](O)C1O (stereo partly drawn) | 1 to 10 µM

----------
target: hA2AAR (Homo sapiens (Human), UniProt P29274)
Sequence (P29274 whole entry): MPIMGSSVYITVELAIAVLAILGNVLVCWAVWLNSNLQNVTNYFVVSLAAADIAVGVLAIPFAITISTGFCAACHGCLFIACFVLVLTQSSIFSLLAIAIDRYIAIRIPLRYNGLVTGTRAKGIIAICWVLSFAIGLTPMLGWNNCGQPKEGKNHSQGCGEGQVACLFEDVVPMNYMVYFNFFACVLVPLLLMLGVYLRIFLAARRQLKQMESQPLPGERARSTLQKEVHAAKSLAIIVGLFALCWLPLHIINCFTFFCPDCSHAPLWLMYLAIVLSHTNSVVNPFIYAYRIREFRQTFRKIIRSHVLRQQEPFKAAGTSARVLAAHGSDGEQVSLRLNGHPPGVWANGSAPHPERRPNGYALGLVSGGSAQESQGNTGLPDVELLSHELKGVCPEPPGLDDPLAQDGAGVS
pKi: −log10 of the molar value.
Each record here notes measured pKi.
readout-type: pKi

molecule | endpoint-value
C[C@@H]1CC(n2cnc3c(NC(C4CC4)C4CC4)nc(Cl)nc32)C(O)C1O (some centres unmarked) [Compound T13.1] | < 5.00
OC[C@H]1O[C@@H](n2cnc3c(NC(C4CC4)C4CC4)nc(Cl)nc32)[C@@H](O)C1O (some centres unmarked) [Compound T14.1] | 5.00 to 6.00
OC[C@H]1O[C@@H](n2cnc3c(NC(C4CCC4)C4CCC4)ncnc32)[C@@H](O)C1O (some centres unmarked) [Compound T14.6] | 5.00 to 6.00
OC[C@H]1O[C@@H](n2cnc3c(NC4C5(CC5)C45CC5)nc(Cl)nc32)[C@@H](O)C1O (some centres unmarked) [Compound T14.2] | 5.00 to 6.00
OC[C@H]1O[C@@H](n2cnc3c(NC(C4CCC4)C4CCC4)nc(Cl)nc32)[C@@H](O)C1O (some centres unmarked) [Compound T14.3] | 5.00 to 6.00

----------
target: hA1AR (Homo sapiens (Human))
Sequence (P30542 whole entry): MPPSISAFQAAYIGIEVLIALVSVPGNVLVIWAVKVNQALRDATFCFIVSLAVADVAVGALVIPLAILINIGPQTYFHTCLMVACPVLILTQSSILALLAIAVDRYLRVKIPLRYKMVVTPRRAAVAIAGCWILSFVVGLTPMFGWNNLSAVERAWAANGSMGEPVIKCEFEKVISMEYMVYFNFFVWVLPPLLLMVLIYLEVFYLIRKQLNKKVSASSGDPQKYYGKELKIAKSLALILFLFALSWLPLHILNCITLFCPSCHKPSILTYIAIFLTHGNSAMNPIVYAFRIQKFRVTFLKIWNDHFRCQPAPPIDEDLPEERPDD
assay-comment: Binding affinities for Adenosine receptors (hA1AR)
experimental-parameters: CHO cells stably expressing recombinant hA1AR

compound | Ki
C[C@@H]1CC(n2cnc3c(NC(C4CCC4)C4CCC4)nc(Cl)nc32)C(O)C1O (stereo partly shown) | < 1 µM
C[C@@H]1CC(n2cnc3c(NC(C4CCC4)C4CCC4)ncnc32)C(O)C1O (stereo partly shown) | 1 to 10 µM
OC[C@H]1O[C@@H](n2cnc3c(NC(C4CCC4)C4CCC4)nc(Cl)nc32)[C@@H](O)C1O (stereo partly shown) | > 10 µM
OC[C@H]1O[C@@H](n2cnc3c(NC(C4CC4)C4CC4)ncnc32)[C@@H](O)C1O (stereo partly shown) | > 10 µM
